Target: Voltage-dependent T-type calcium channel subunit alpha-1H (Homo sapiens, UniProt O95180)
Sequence (O95180 whole entry): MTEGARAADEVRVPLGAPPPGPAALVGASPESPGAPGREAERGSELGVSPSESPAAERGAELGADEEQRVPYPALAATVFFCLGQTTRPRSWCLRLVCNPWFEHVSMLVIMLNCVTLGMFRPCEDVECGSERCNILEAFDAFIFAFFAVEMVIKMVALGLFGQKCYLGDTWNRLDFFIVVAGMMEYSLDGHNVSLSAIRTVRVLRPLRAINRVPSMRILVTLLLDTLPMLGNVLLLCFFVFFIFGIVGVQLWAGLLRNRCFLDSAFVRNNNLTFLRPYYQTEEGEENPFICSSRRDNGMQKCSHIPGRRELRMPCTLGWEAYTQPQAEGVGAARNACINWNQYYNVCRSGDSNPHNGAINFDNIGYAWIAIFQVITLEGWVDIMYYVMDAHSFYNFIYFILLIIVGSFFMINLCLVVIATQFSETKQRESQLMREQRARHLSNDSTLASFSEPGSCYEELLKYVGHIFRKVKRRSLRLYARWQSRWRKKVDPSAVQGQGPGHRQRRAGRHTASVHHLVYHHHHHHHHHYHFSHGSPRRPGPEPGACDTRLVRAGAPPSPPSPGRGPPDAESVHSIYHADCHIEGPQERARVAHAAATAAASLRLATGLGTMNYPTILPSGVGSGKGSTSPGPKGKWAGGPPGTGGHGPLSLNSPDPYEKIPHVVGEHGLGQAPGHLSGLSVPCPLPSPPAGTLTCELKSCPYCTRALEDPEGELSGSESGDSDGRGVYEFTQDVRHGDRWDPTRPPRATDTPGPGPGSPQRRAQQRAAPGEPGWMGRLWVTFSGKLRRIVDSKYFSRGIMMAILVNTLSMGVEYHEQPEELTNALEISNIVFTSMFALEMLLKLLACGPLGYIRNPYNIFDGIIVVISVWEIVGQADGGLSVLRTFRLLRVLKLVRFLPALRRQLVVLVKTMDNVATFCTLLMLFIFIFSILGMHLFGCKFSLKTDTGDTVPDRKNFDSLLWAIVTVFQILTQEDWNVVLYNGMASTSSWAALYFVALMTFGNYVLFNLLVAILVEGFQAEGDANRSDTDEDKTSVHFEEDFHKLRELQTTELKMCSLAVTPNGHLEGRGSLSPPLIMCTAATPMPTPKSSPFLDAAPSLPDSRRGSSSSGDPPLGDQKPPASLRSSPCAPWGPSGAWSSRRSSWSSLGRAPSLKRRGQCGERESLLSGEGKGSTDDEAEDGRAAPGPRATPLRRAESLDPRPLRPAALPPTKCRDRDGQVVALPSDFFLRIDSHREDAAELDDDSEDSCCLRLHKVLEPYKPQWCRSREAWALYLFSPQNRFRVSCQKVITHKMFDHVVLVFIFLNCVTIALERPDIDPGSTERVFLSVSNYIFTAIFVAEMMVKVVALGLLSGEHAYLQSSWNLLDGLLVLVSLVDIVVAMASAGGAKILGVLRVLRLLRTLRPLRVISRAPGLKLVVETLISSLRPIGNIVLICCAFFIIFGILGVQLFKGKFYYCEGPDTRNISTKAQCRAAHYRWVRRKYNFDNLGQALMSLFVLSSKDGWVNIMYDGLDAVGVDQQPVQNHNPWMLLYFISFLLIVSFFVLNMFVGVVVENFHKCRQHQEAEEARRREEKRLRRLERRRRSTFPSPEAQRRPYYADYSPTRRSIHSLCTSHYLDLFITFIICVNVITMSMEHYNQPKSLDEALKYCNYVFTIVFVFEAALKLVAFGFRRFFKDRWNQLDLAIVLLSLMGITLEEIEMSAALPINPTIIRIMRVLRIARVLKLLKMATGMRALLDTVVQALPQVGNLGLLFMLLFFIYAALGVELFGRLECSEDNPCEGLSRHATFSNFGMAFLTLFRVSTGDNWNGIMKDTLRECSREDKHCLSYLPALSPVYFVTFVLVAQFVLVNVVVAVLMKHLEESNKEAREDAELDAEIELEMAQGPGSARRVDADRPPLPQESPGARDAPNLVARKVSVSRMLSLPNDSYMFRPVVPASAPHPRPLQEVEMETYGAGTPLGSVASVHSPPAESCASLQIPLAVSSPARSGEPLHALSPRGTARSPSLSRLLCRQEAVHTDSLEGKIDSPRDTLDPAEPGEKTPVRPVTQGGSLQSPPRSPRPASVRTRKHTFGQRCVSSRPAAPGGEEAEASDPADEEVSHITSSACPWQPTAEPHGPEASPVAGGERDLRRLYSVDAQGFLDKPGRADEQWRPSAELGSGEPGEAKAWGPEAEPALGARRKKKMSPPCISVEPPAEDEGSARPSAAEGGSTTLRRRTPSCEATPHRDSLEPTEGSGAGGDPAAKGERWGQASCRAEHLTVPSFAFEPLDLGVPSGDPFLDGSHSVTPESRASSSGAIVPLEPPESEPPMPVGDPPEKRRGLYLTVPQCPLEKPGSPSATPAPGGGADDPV
Experiment: Inhibition of Cav3.2 alpha1H (unknown origin) expressed in HEK293 cells assessed as decrease in KCl-induced depolarization mediated intracellular Ca2+ level at 10 uM by fluo3/AM based high throughput screening assay relative to control
Assay type: cell-based
quantity-measured: inhibition (%)
State just the number; it will be interpreted in %.

Record CC(C)Cc1cc(CNS(=O)(=O)c2cccc(I)c2)nn1-c1ccccc1 , field inhibition: 44.9

Record CC(C)Cc1cc(CNS(=O)(=O)c2c(F)cccc2F)nn1-c1ccccc1 , field inhibition: 69.3

Record CC(C)(C)n1nc(CNS(=O)(=O)c2ccccc2)cc1-c1ccccc1 , field inhibition: 10.4

Record CC(C)Cc1cc(CNS(=O)(=O)CCc2ccccc2)nn1-c1ccccc1 , field inhibition: 68.6

Record CC(C)Cc1cc(CNS(=O)(=O)c2c(Cl)cccc2Cl)nn1-c1ccccc1 , field inhibition: 56

Record Cc1cc(I)ccc1S(=O)(=O)NCc1cc(CC(C)C)n(-c2ccccc2)n1 , field inhibition: 26.6

###

Biological target: Voltage-dependent T-type calcium channel subunit alpha-1G (Homo sapiens, UniProt O43497)
Sequence (O43497 whole entry): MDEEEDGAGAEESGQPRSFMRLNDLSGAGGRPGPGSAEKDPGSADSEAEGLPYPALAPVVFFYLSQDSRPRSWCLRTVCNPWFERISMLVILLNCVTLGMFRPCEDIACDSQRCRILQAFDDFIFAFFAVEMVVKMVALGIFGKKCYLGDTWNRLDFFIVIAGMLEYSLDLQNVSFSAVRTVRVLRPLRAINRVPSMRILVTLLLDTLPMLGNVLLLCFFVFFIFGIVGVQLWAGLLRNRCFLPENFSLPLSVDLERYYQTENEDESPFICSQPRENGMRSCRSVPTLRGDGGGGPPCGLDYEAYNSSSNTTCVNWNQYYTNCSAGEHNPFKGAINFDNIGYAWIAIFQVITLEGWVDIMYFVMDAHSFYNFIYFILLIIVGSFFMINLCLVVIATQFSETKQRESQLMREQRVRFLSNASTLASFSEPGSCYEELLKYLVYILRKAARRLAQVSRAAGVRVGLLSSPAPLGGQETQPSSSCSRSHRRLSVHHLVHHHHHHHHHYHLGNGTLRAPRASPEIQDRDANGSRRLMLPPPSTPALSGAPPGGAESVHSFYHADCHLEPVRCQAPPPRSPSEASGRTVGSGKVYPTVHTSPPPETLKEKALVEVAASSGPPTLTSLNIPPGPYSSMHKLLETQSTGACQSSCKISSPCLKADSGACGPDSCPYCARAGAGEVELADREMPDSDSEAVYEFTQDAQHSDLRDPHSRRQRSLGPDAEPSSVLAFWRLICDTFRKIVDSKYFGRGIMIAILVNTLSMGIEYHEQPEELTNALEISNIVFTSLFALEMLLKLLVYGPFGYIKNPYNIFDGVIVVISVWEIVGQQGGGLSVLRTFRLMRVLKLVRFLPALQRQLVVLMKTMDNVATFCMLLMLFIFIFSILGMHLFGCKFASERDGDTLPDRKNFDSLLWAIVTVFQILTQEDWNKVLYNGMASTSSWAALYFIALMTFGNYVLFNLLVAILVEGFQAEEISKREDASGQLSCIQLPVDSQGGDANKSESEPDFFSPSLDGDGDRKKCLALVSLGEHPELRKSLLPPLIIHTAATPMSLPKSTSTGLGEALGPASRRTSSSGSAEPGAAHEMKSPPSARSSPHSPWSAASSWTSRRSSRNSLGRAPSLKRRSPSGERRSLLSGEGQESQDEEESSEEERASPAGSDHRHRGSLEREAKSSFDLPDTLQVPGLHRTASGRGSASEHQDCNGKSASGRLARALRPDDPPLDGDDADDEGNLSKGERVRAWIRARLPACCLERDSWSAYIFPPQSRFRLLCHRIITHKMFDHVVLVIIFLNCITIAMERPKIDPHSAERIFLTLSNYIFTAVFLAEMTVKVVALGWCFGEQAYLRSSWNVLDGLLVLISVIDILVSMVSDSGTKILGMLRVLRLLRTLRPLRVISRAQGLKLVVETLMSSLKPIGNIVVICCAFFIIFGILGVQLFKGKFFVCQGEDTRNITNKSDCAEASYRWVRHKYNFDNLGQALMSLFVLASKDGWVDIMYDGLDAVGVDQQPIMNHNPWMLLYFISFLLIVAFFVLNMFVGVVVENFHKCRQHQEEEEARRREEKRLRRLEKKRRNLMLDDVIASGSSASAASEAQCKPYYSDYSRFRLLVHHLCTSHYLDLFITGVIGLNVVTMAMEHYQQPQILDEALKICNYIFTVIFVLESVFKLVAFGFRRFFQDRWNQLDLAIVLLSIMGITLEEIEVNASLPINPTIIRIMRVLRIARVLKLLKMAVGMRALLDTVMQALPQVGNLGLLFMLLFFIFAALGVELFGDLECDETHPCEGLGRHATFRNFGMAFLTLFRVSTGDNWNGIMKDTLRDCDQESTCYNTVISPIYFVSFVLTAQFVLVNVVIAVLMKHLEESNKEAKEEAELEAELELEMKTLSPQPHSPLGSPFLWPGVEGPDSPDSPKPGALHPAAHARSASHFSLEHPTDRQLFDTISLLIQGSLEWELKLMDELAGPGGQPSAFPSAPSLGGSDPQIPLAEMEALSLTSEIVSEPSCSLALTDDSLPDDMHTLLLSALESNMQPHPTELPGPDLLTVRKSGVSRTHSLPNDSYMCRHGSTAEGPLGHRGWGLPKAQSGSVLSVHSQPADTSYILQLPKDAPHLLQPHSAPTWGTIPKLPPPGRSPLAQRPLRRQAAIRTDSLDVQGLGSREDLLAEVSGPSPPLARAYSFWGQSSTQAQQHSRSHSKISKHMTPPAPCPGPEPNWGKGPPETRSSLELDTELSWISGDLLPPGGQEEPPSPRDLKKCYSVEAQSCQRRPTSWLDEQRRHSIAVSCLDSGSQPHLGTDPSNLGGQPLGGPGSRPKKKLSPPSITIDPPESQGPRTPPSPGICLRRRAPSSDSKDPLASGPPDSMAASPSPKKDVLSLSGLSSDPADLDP
Experiment: Inhibition of Cav3.1 alpha1G (unknown origin) expressed in HEK293 cells assessed as decrease in KCl-induced depolarization mediated intracellular Ca2+ level at 10 uM by fluo3/AM based high throughput screening assay relative to control
Type: cell-based
quantity-measured: inhibition (%)
State just the number; it will be interpreted in %.

Bench note, Voltage-dependent T-type calcium channel subunit alpha-1G (Homo sapiens, UniProt O43497): entry CC(C)Cc1cc(CNS(=O)(=O)CCc2ccccc2)nn1-c1ccccc1 , its inhibition = 70.5

Bench note, Voltage-dependent T-type calcium channel subunit alpha-1G (Homo sapiens, UniProt O43497): entry CC(C)Cc1cc(CNS(=O)(=O)c2cccc3ccccc23)nn1-c1ccccc1 , its inhibition = 24.3

Bench note, Voltage-dependent T-type calcium channel subunit alpha-1G (Homo sapiens, UniProt O43497): entry CC(C)Cc1cc(CNS(=O)(=O)c2cccc(F)c2)nn1-c1ccccc1 , its inhibition = 64.1

Bench note, Voltage-dependent T-type calcium channel subunit alpha-1G (Homo sapiens, UniProt O43497): entry CC(C)Cc1cc(CNS(=O)(=O)c2c(Cl)cccc2Cl)nn1-c1ccccc1 , its inhibition = 36.9
